target: UniProtKB P31751; experiment: Akt kinase assay (HTRF, GSK-derived biotinylated peptide substrate); assay type: biochemical
Sequence (P31751 whole entry): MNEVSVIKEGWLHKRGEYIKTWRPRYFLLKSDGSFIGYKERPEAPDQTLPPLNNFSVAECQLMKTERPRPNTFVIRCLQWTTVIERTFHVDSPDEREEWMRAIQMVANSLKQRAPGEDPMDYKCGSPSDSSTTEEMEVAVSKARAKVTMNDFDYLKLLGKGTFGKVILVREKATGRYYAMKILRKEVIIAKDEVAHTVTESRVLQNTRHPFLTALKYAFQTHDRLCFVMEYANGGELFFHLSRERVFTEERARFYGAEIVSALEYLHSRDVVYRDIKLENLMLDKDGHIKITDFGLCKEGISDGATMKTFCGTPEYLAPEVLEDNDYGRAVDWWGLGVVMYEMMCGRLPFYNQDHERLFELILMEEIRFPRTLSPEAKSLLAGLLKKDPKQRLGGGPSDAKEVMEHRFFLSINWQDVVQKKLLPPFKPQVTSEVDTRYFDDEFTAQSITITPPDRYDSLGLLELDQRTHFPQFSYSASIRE

{"columns": ["Compound", "IC50"],
 "data": [
  ["CC1(O)CC(N)(c2ccc(-c3nc4ccc5nnc(-c6nnc[nH]6)n5c4cc3-c3ccccc3)cc2)C1 (centres unmarked)", "12.6 nM"],
  ["C[C@]1(O)C[C@@](N)(c2ccc(-c3nc4ccc5nnc(C(F)F)n5c4cc3-c3ccccc3)cc2)C1", "1.7 nM"],
  ["NC1(c2ccc(-c3nc4ccc5nnc(-c6ccccc6)n5c4cc3-c3ccccc3)cc2)CCC1", "32 nM"],
  ["NC1(c2ccc(-c3nc4ccc5nnc(C(F)F)n5c4cc3-c3ccccc3)cc2)CC(O)(C2CC2)C1 (centres unmarked)", "2.2 nM"],
  ["NC1(c2ccc(-c3nc4ccc5nnc(-c6ccccc6)n5c4cc3-c3ccccc3)cc2)CC(F)(F)C1", "140 nM"],
  ["Nc1nnc2ccc3nc(-c4ccc(C5(N)CCC5)cc4)c(-c4ccccc4)cc3n12", "24 nM"],
  ["O=C(Cc1cccnc1)NC1(c2ccc(-c3nc4ccc5nnc(O)n5c4cc3-c3ccccc3)cc2)CCC1", "200 nM"],
  ["Cc1nnc2ccc3nc(-c4ccc(C5(N)CCC5)cc4)c(-c4ccccc4)cc3n12", "50 nM"]
]}

* * *

Measured IC50 of individual entries
target: Akt1 kinase (Homo sapiens (Human), UniProt P31749); assay: Akt kinase assay (HTRF, GSK-derived biotinylated peptide substrate); assay type: biochemical
Sequence (P31749 whole entry): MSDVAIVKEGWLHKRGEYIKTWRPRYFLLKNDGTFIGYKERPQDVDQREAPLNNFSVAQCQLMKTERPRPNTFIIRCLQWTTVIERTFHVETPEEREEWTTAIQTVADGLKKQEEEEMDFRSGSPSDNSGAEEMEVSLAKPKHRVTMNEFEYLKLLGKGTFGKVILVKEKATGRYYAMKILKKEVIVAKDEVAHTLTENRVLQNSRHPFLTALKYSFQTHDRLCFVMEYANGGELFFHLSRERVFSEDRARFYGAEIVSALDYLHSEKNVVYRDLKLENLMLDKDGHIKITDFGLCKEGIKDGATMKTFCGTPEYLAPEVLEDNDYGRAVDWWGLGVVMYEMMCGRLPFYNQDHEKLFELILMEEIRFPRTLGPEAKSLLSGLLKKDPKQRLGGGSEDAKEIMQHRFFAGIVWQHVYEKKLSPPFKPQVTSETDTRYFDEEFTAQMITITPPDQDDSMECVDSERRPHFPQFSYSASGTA

{"columns": ["Compound", "IC50"],
 "data": [
  ["NC1(c2ccc(-c3nc4ccc5nnc(C(F)F)n5c4cc3-c3ccccc3)cc2)CC(O)(C2CC2)C1 (centres unmarked) [EXAMPLE 10-5]", "0.34 nM"],
  ["C[C@]1(O)C[C@@](N)(c2ccc(-c3nc4ccc5nnc(C(F)F)n5c4cc3-c3ccccc3)cc2)C1 [EXAMPLE 10-4]", "0.38 nM"],
  ["NC1(c2ccc(-c3nc4ccc5nnc(-c6ccccc6)n5c4cc3-c3ccccc3)cc2)CCC1 [EXAMPLE 2-1]", "2.3 nM"],
  ["Nc1nnc2ccc3nc(-c4ccc(C5(N)CCC5)cc4)c(-c4ccccc4)cc3n12 [EXAMPLE 3-1]", "6.1 nM"],
  ["CC1(O)CC(N)(c2ccc(-c3nc4ccc5nnc(-c6nnc[nH]6)n5c4cc3-c3ccccc3)cc2)C1 (centres unmarked) [EXAMPLE 7-26]", "0.7 nM"],
  ["NC1(c2ccc(-c3nc4ccc5nnc(-c6ccccc6)n5c4cc3-c3ccccc3)cc2)CC(F)(F)C1 [EXAMPLE 5-12]", "10 nM"],
  ["O=C(Cc1cccnc1)NC1(c2ccc(-c3nc4ccc5nnc(O)n5c4cc3-c3ccccc3)cc2)CCC1 [EXAMPLE 1-9]", "39 nM"],
  ["Cc1nnc2ccc3nc(-c4ccc(C5(N)CCC5)cc4)c(-c4ccccc4)cc3n12 [EXAMPLE 4-1]", "8.2 nM"]
]}
